# Tested on: Boophilus microplus
# testDescription: Boophilus microplus test (BOOPMI injection)
# Assay type: in vivo
# testConditions: 20 μg/Tier injected into abdomen, 100% = no tick has laid fertile eggs
quantity: Kill rate in % after 7 days (%)
Reply numerically in %, unit not repeated.

Give the reported value of Kill rate in % after 7 days for this record: "O=C1C=C(N(Cc2cnc(Cl)c(Cl)c2)C2CC2)CO1"
50

Give the reported value of Kill rate in % after 7 days for this record: "O=C1C=C(N(Cc2cnc(Br)c(Cl)c2)C2CC2)CO1"
30

Give the reported value of Kill rate in % after 7 days for this record: "CON(Cc1cnc(Cl)c(Cl)c1)C1=CC(=O)OC1"
30

Give the reported value of Kill rate in % after 7 days for this record: "CCN(Cc1cnc(Cl)c(C)c1)C1=CC(=O)OC1"
30

Give the reported value of Kill rate in % after 7 days for this record: "O=C1C=C(N(Cc2cnc(Cl)c(I)c2)C2CC2)CO1"
40

Here's the next entry for you.
Give the reported value of Kill rate in % after 7 days for this record: "CN(Cc1cnc(Cl)c(F)c1)C1=CC(=O)OC1"
30
